Assay: Stability in human liver microsomes assessed as compound remaining at 5 uM in presence of NADPH after 30 mins by LC-MS/MS method
Format: ADME
Details: read-out: Stability
metric: remaining at 0.5 h, 5 µM (%)
# unit: % | format: bare number

Query: Which remaining at 0.5 h, 5 µM is listed for COc1cc(N2CCc3nc(NC(=O)NCCc4cn(CC(F)F)cn4)sc3C2)cnc1Cl ?
Reply: 61

* * *

Assay: Thermodynamic solubility in FaSSIF at pH 6.5 at 5 mg incubated for 48 hrs by HPLC method
Format: physicochemical
Settings: read-out: Therm_solubility
metric: solubility thermodynamic at 48 h (µg/mL)
# unit: µg/mL | format: bare number

Query: Which solubility thermodynamic at 48 h is listed for COc1cncc(N2CCc3nc(NC(C)=O)sc3C2)c1 ?
Reply: 9.4
